Test: Microsomal stability assay in rat liver microsomes
Assay type: in vitro ADME
Conditions: pH 7.4

| smi | microsomal CLint at 1 µM |
| --- | --- |
| O=C(Nc1ccc(-c2ccc3ccncc3c2)cc1)C1CCN(S(=O)(=O)c2ccccc2Cl)CC1 | 54 µL/min/mg |
